Known pKi of a selection of compounds
# SYSTEM TESTED: D2R (D2 dopamine receptor; HA-hDRD2-SmBiT) (Homo sapiens)
# PROTOCOL: competition with [3H]-raclopride, membranes
pKi: −log10 of the molar value.
RECORDED ENDPOINT: pKi

> print(dat)
                                   compound  quantitative.result
1                    CNC[C@H](O)c1cccc(O)c1                 4.82
2  NCC(O)c1ccccc1 (centres unmarked) [hydroxyphenethylamine]                 3.71
3                              CNCCc1ccccc1                 4.77
4      NCC(O)c1cccc(O)c1 (centres unmarked)                 4.77
5                        CNCCc1ccc(O)c(O)c1                 7.22
6                 CNC[C@H](O)c1ccc(O)c(O)c1                 5.15
7  CNCC(O)c1ccc(O)cc1 (centres unmarked) [synephrine]                 4.06
8                     NC[C@H](O)c1ccc(O)cc1                 3.46

----------
Known Ki of a selection of compounds
# SYSTEM TESTED: D2R (D2 dopamine receptor; HA-hDRD2-SmBiT) (Homo sapiens, UniProt P14416)
# Sequence (P14416 whole entry): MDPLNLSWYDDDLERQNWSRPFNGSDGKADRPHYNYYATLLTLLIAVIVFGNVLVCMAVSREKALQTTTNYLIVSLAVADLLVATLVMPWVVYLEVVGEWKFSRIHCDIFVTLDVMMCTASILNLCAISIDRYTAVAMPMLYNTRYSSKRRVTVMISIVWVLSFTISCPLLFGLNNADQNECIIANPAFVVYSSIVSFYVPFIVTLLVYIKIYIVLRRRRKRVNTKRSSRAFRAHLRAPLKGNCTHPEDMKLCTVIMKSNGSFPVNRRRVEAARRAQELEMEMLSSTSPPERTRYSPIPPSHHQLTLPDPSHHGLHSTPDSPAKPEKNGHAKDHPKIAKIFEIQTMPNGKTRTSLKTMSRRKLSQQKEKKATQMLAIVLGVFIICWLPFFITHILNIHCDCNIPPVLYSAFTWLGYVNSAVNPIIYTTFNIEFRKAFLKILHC
# PROTOCOL: competition with [3H]-raclopride, membranes
RECORDED ENDPOINT: Ki

> print(dat)
            smiles.notation  recorded.endpoint   result
1  NC[C@H](O)c1ccc(O)c(O)c1                 Ki  9.55 µM
2            NCCc1cccc(O)c1                 Ki  1.86 µM
3            NCCc1ccc(O)cc1                 Ki  77.6 µM
